- Tested on: UO-31 renal
- EXPERIMENTAL DETAILS: NCI-60 one-dose screen, 48 h (100 = growth as untreated, 0 = no growth, -100 = all killed)
- CONDITIONS USED: 10 µM unless noted
About 83,000 compounds went through this panel and 20% of them were active in at least one assay; those are over-represented in the sample as a whole. The source made the active and inactive calls. How the source made its calls: active means growth percent below 10; inactive means the rest.
Each entry below carries its reported growth.

Worked examples, 8 compounds total:
COMPOUND	growth
Cc1ccccc1NC(=O)CN(C)C	81.2% (inactive)
COc1cc(-c2ccc(N=Nc3c(O)c(C(=O)Nc4ccccc4OC)cc4ccccc34)c(OC)c2)ccc1N=Nc1c(O)c(C(=O)Nc2ccccc2OC)cc2ccccc12	78.7% (inactive)
Cc1ccc2c(n1)C(=O)C(Oc1ccc(F)cc1)=CC2=O	93.9% (inactive)
OC(c1cccc(OCc2ccccc2)c1)c1nnc(-c2ccccc2)o1 (stereo not drawn)	68.1% (inactive)
Clc1ccc(-c2cn(-c3ccccc3)c(-c3ccccc3)n2)cc1	67.8% (inactive)
Nc1nc(Nc2ccc(Cl)cc2)nn1S(=O)(=O)c1ccc(-c2ccc(F)cc2)cc1	57.2% (inactive)
CC(=O)c1sc(-c2ccccc2)cc1N	88.6% (inactive)
NC(N)=N/N=C(/c1ccccc1)c1ccccc1F	44% (inactive)

# ---- query compound ----
Task: Item under review: CCOC(=O)Cc1csc2nc(-c3ccccc3)nn12 . Reported growth?
Output: 97% (inactive)

* * *

Each entry below carries its reported growth.
- Test system: SK-OV-3 ovarian
- EXPERIMENTAL DETAILS: NCI-60 one-dose screen, 48 h (100 = growth as untreated, 0 = no growth, -100 = all killed)
- CONDITIONS USED: 10 µM unless noted
About 83,000 compounds went through this panel and 20% of them were active in at least one assay; those are over-represented in the sample as a whole.
Express your answer in %, writing the number without its unit.

Worked examples, 4 compounds total:
COMPOUND	ENDPOINT LABEL	UNIT TAG	ASSAY VALUE
COc1ccc(OC)c(/C=C2\COc3ccc(O)c(O)c3C2=O)c1	growth	%	45.2
O=C(CCCCCCCn1cc(-c2cccnc2)nn1)Nc1ccccc1-c1ccccc1	growth	%	61.7
CC1(C)N=C(N)N=C(N)N1c1ccc(Cl)c(Cl)c1	growth	%	39.5
COc1cc(C(=O)Nc2cc(O)c(CC=C(C)C)c(O)c2)cc2c1O[C@]1(C)CC[C@@H](O)C(C)(C)[C@H]1C2	growth	%	16.5

Task: Item under review: C=C(C)[C@@H]1CC[C@]2(C(=O)NCC(=O)O)CC[C@]3(C)[C@H](CC[C@@H]4[C@@]5(C)Cc6c([nH]c7ccccc67)C(C)(C)[C@@H]5CC[C@]43C)[C@@H]12 . Reported growth?
Output: 75.1

Task: Item under review: NC(N)=N/N=C(/c1ccccc1)c1ccccc1F . Reported growth?
Output: 19.5

Task: Item under review: COc1ccc(NC(=O)C(=O)c2c[nH]c3ccc(F)cc23)cc1 . Reported growth?
Output: 89.4

Task: Item under review: C/C(=N\NC(=O)Cn1c(-c2ccc(S(C)(=O)=O)cc2)nc2cc(Cl)ccc21)c1ccc(Cl)cc1 . Reported growth?
Output: 81.3

Task: Item under review: O=C(C[C@@]1(O)C(=O)Nc2c(Cl)ccc(Cl)c21)c1ccc(C2CC2)cc1 . Reported growth?
Output: 38.6

Task: Item under review: COC(=O)CNC(=O)C(=O)c1c(O)c(O)c(C(C)C)c2cc(C)c(-c3c(C)cc4c(C(C)C)c(O)c(O)c(C(=O)C(=O)NCC(=O)OC)c4c3O)c(O)c12 . Reported growth?
Output: 6.72

Task: Item under review: CC(C)n1nc(C#Cc2cccc3cc(-c4cccc(C(F)(F)F)c4)ncc23)c2c(N)ncnc21 . Reported growth?
Output: 91

Task: Item under review: COc1ccc(Nc2ncc(Br)c(NCCCNC(=O)C3CCC3)n2)cc1 . Reported growth?
Output: 10.6

Task: Item under review: Cc1ccc(-n2nnc(C3=NCCc4c3[nH]c3ccc(Cl)cc43)c2C)cc1 . Reported growth?
Output: 87

* * *

- System: HT29 colon
- EXPERIMENTAL DETAILS: NCI-60 one-dose screen, 48 h (100 = growth as untreated, 0 = no growth, -100 = all killed)
- CONDITIONS USED: 10 µM unless noted
Compounds without any hit were thinned out: in the full panel of roughly 83,000, 20% have a hit. Active and inactive are the calls of the source. The calls were made as follows: active = growth percent below 10; inactive = the rest.
ENDPOINT LABEL: growth

Worked examples, 3 molecules total:
> print(dat)
                                smiles.text       assay.value
1  Clc1ccc(/C=C/c2nc(Nc3ccc(Cl)cc3)c3ccccc3n2)cc1   112% (inactive)
2  O=C(NC(=S)Nc1ccc(-c2nc3ccccc3[nH]2)cc1)c1ccc2ccccc2c1  21.8% (inactive)
3  COc1cc(NC(=O)c2cccc(-c3cc(=O)c4c(OC)c(OC)c(OC)cc4o3)c2)cc(OC)c1OC  31.1% (inactive)

Task: Item under review: Cc1ccc(/C=C(\C#N)n2nnc3cc(Cl)c(Cl)cc32)cc1 . Reported growth?
Output: 12.3% (inactive)

Task: Item under review: COc1ccc(/C=C(\C#N)n2nnc3ccccc32)cc1 . Reported growth?
Output: 11% (inactive)

Task: Item under review: CC(=[N-])N1CCC[C@@H](Nc2c3ccccc3nc3ccccc23)C1.[Cl][Pt].[NH-]CCC[NH-] . Reported growth?
Output: 1.38% (active)

Task: Item under review: N[C@@H]1CCC[C@H]1NCCCCN1C(=O)c2cccc3cccc(c23)C1=O . Reported growth?
Output: 33.8% (inactive)

Task: Item under review: COC(=O)CCCNC(=O)C(=O)c1c(O)c(O)c(C(C)C)c2cc(C)c(-c3c(C)cc4c(C(C)C)c(O)c(O)c(C(=O)C(=O)NCCCC(=O)OC)c4c3O)c(O)c12 . Reported growth?
Output: -22.9% (active)

Task: Item under review: CCNCCNc1cc(-c2ccc(C(F)(F)F)cc2)c(C#N)c2nc3cc(Cl)c(Cl)cc3n12 . Reported growth?
Output: -85.5% (active)

* * *

- Tested on: U251 CNS
- EXPERIMENTAL DETAILS: NCI-60 one-dose screen, 48 h (100 = growth as untreated, 0 = no growth, -100 = all killed)
- CONDITIONS USED: 10 µM unless noted
This is part of a sample that, as a whole, favours compounds with a hit. Of some 83,000 tested, about 20% had one in any assay.
Each entry below carries its reported growth.
Express your answer in %, writing the number without its unit.

Worked examples, 4 molecules total:
> print(dat)
                                   molecule  system.name  unit.tag  assay.value
1     COc1cccc(/C=C2\COc3ccc(O)cc3C2=O)c1OC     U251 CNS         %         54.3
2  CCCCN1CCN(c2ccc3nc(-c4ccc5nc(-c6cc(OC)c(OC)c(OC)c6)[nH]c5c4)[nH]c3c2)CC1     U251 CNS         %         56.3
3  CN1CCN(C(=O)[C@@]2(C)CC[C@]3(C)CC[C@]4(C)C(=CC[C@@H]5[C@@]6(C)C/C(=C/c7ccncc7)C(=O)C(C)(C)[C@@H]6CC[C@]54C)[C@@H]3C2)CC1     U251 CNS         %         32.6
4  COc1ccc(OC)c(C(=O)Nc2cccc(-c3cc(=O)c4ccccc4o3)c2)c1     U251 CNS         %         93.8

# ---- query molecule ----
Task: Item under review: COc1cc(C2CC(=O)Nc3n[nH]c(-c4ccccc4)c32)cc(OC)c1OC (stereo not given) . Reported growth?
Output: 62.9

* * *

- Test system: A498 renal
- EXPERIMENTAL DETAILS: NCI-60 one-dose screen, 48 h (100 = growth as untreated, 0 = no growth, -100 = all killed)
- CONDITIONS USED: 10 µM unless noted
About 83,000 compounds went through this panel and 20% of them were active in at least one assay; those are over-represented in the sample as a whole.
Each entry below carries its reported growth.
Express your answer in %, writing the number without its unit.

> print(dat)
                                   compound  assay.value
1  C[C@@H]1CC[C@@H]2[C@@H]1[C@H](OC(=O)c1ccc3ccccc3c1)[C@]1(C3CCCCC3)C[C@@H](OC(=O)CO)[C@@]2(C)O1          -85
2  O=C(O)CC1Sc2ccccc2NC1=O (stereo not given)          124

Task: Observed growth on A498 renal for C[C@]12CCC(=O)C[C@H]1CC[C@@H]1[C@@H]2CC[C@@]2(C)[C@H]1CC[C@]2(O)C(=O)CO , please.
Output: 97.1

Task: Observed growth on A498 renal for COc1ccc(/C=C2\COc3ccc(O)cc3C2=O)c(OC)c1 , please.
Output: 92.4
